The values you see were collected from paper PMC9145622.

Consider the following compounds; for each one, report its Displacement ± SD hM3.
molecular target: hM3 (Homo sapiens, UniProt P20309); assay: Competitive [3H]NMS radioligand binding, CHO-K1 membranes expressing hM3; details: displacement of [3H]NMS, single ligand concentration corresponding to a Ki value of 1 µM (Cheng-Prusoff)
Sequence (P20309 whole entry): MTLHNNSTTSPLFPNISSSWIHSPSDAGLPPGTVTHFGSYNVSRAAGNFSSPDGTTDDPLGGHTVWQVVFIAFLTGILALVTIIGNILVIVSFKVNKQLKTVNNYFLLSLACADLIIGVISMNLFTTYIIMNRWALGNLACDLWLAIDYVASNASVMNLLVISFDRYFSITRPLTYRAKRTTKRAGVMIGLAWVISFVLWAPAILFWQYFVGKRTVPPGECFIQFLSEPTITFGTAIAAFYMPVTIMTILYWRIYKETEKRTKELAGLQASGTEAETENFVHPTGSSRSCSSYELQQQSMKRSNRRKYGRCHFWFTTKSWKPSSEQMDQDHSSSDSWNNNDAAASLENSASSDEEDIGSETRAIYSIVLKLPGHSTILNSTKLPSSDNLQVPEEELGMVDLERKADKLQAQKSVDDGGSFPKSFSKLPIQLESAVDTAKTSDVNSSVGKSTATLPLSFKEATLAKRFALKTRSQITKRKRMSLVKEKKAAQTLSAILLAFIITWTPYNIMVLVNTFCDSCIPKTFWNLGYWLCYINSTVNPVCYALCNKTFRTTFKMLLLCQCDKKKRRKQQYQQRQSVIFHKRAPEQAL
Give just the number in %; leave the unit off.

**Q:** Which measured Displacement ± SD hM3 value corresponds to CN1CCC=C(C(=O)OCc2cccc(CO)c2)C1 [Compound 8b] ?
**A:** 34

**Q:** What do you have for CN1CCC=C(C(=O)OC(CO)c2ccccc2)C1 (stereo not shown) [Compound 22] ?
**A:** 33

**Q:** Also check CN1CCC=C(C(=O)OCc2ccccc2CO)C1 [Compound 8a]
**A:** 72

**Q:** Note, next up: CN1CCC=C(C(=O)Oc2ccccc2-c2ccccc2O)C1 [Compound 27]
**A:** 51

###

Target: UniProt P08912
Sequence (P08912 1-532): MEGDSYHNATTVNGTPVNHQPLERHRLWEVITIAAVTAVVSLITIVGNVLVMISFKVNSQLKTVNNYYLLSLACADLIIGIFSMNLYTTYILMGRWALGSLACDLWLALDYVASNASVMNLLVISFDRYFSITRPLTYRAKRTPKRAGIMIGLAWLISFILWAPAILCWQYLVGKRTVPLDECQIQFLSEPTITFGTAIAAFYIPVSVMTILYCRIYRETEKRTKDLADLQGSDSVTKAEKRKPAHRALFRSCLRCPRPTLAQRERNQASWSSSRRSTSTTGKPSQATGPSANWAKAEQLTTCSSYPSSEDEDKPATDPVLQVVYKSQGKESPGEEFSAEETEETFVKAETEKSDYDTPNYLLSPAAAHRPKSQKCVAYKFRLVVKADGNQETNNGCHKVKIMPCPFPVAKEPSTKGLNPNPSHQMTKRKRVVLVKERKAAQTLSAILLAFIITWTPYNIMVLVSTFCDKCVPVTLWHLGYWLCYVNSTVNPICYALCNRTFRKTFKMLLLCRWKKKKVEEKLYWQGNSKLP
Experiment: Competitive [3H]NMS radioligand binding, CHO-K1 membranes expressing hM5
Conditions: displacement of [3H]NMS, single ligand concentration corresponding to a Ki value of 1 µM (Cheng-Prusoff)
For each entry below, report its Displacement ± SD hM5 value.

**Q:** # input compound: CN1CCC=C(C(=O)OCc2ccccc2CO)C1 ; wanted: its Displacement ± SD hM5
**A:** 72 ± 3%

**Q:** Also CN1CCC=C(C(=O)Oc2ccccc2-c2ccccc2O)C1 ?
**A:** 65 ± 11%

**Q:** Queued: CN1CCC=C(C(=O)OCc2cccc(CO)c2)C1
**A:** 29 ± 6%

**Q:** Same question, CN1CCC=C(C(=O)OC(CO)c2ccccc2)C1 (stereo not shown) this time
**A:** 72 ± 5%

###

target: hM2 (Homo sapiens, UniProt P08172); test: Competitive [3H]NMS radioligand binding, CHO-K1 membranes expressing hM2; conditions: displacement of [3H]NMS, single ligand concentration corresponding to a Ki value of 1 µM (Cheng-Prusoff)
VALUE_KIND: Displacement ± SD hM2 (%)
Report as a plain number; the unit % is understood.

**Q:** Consider the compound shown here: CN1CCC=C(C(=O)Oc2ccccc2-c2ccccc2O)C1 [Compound 27] What is its recorded Displacement ± SD hM2?
**A:** 34

**Q:** Please give the result for CN1CCC=C(C(=O)OCc2cccc(CO)c2)C1 [Compound 8b] too.
**A:** 23

**Q:** Similarly, CN1CCC=C(C(=O)OC(CO)c2ccccc2)C1 (stereo not shown) [Compound 22] ?
**A:** 28

**Q:** Same read-out for CN1CCC=C(C(=O)OCc2ccccc2CO)C1 [Compound 8a] ?
**A:** 43

###

biological target: UniProt P11229; assay: Competitive [3H]NMS radioligand binding, CHO-K1 membranes expressing hM1; conditions: ratio of the Ki values hM4/hM1
Sequence (P11229 whole entry): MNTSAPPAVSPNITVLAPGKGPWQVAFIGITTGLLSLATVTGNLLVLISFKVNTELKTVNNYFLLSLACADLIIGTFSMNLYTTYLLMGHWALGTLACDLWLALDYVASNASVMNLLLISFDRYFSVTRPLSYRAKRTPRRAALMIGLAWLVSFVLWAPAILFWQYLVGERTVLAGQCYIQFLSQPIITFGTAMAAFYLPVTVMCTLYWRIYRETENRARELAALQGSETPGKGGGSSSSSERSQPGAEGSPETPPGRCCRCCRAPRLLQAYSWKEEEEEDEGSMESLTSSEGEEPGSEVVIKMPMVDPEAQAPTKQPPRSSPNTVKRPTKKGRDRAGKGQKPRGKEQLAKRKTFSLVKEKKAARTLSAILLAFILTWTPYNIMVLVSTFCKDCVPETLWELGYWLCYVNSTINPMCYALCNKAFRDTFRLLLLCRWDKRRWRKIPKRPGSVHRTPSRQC
We use 2 x-fold as the dividing line for x-Fold Selectivity for hM1 vs. hM4: on or above the line is label 1, below is label 0.

**Q:** Form field: x-Fold Selectivity for hM1 vs. hM4 at least 2 x-fold? Entry: CN1CCC=C(C(=O)OCC(O)(c2ccccc2)c2ccccc2)C1 [Compound 25]
**A:** label 0

**Q:** And then CN1CCC=C(C(=O)OC(c2ccccc2)c2cccc(O)c2)C1 (stereo not drawn) [Compound 17b] , what is it?
**A:** label 1

**Q:** Queued: CN1CCC=C(C(=O)OCc2cccc(O)c2)C1 [Compound 18b]
**A:** label 1

**Q:** Record: CN1CCC=C(C(=O)OCc2ccc(CO)cc2)C1 [Compound 8c]
**A:** label 0

**Q:** And CN1CCC=C(C(=O)OC(c2ccccc2)c2ccccc2)C1 [DPMA] ?
**A:** label 1

**Q:** Lookup CN1CCC=C(C(=O)OC(c2ccccc2)c2ccc(CO)cc2)C1 (stereo not drawn) [Compound 10c]
**A:** label 0

###

Molecular target: UniProt P08172
Sequence (P08172 1-466): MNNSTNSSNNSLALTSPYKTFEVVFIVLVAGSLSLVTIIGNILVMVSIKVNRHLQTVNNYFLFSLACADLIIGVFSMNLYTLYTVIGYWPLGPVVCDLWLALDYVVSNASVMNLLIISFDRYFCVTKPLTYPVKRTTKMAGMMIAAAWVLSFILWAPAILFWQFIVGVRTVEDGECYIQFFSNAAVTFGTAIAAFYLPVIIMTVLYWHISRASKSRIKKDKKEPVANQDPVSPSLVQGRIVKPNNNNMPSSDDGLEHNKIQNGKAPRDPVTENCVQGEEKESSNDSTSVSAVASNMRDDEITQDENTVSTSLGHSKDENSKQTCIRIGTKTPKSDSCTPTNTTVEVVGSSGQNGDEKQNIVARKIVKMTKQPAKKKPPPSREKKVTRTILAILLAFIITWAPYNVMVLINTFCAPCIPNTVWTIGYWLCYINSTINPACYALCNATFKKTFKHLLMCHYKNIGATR
Assay: Competitive [3H]NMS radioligand binding, CHO-K1 membranes expressing hM2
Details: [3H]NMS, CHO-hM2 cell membrane preparations; >1000 values from two independent (single-concentration) experiments; read-out: Affinity: Ki ± SD hM2
So I've got a bunch of molecules here, and I need their pKi values.
# pKi: negative log10 of molar concentration; output just the value

**Q:** # query: pKi | item CN1CCC=C(C(=O)OC(c2ccccc2)c2cccc(O)c2)C1 (stereo not drawn) [Compound 17b] | system: UniProt P08172
**A:** 6.76

**Q:** // query: CN1CCC=C(C(=O)OC(c2ccccc2)c2cccc(CO)c2)C1 (stereo not drawn) [Compound 10b]
**A:** 6.70

**Q:** Would you mind doing CN1CCC=C(C(=O)OC(c2ccccc2)c2ccc(CO)cc2)C1 (stereo not drawn) [Compound 10c] as well?
**A:** 6.01

###

Target: hM4 (Homo sapiens)
Sequence (P08173 1-479): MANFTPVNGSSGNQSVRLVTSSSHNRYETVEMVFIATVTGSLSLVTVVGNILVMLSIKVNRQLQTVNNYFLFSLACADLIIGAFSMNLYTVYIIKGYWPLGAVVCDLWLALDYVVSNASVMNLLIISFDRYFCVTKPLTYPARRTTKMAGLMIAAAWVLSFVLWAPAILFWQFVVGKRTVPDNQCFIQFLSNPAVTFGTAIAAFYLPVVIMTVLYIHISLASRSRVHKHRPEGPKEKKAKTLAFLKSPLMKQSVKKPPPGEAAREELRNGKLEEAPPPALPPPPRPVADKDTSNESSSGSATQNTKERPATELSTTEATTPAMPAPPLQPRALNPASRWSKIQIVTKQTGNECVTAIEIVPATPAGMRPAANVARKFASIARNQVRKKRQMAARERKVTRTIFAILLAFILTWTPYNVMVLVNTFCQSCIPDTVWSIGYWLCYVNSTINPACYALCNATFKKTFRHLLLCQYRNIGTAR
Assay: Competitive [3H]NMS radioligand binding, CHO-K1 membranes expressing hM4
Settings: [3H]NMS, CHO-hM4 cell membrane preparations; read-out: Affinity: Ki ± SD hM4
VALUE_KIND: Ki

**Q:** Need Ki, item CN1CCC=C(C(=O)OCc2ccc(CO)cc2)C1
**A:** 697 nM

**Q:** Another compound to check: CN1CCC=C(C(=O)OC(c2ccccc2)c2cccc(CO)c2)C1 (stereo not drawn) [Compound 10b]
**A:** 32.3 nM

**Q:** And CN1CCC=C(C(=O)OC(c2ccccc2)c2cccc(O)c2)C1 (stereo not drawn) [Compound 17b] ?
**A:** 18.4 nM

**Q:** And CN1CCC=C(C(=O)OCC(O)(c2ccccc2)c2ccccc2)C1 ?
**A:** 217 nM

**Q:** Now give it for CN1CCC=C(C(=O)OCc2cccc(O)c2)C1 [Compound 18b] too.
**A:** 634 nM

**Q:** And then CN1CCC=C(C(=O)OC(c2ccccc2)c2ccc(CO)cc2)C1 (stereo not drawn) [Compound 10c] , what is it?
**A:** 93 nM
